TESTED_TARGET: T1, Recombinant Human DLL4 (R&D Systems Cat#1506-D4/CF) (human, UniProt Q9NR61 27-524)
T1 construct: also called delta-like protein 4; Delta-like 4
TEST_NAME: ECL (MSD) multispot binding assay, immobilised recombinant human DLL4, Fab at 0.04 uM
Values of ECL Signal/Noise greater than or equal to 40 map to yes; values below map to no.

q: Check the entry Fab VH5-51_IGHD5-18*01>3_IGHJ4*01 G100K/G104T (H:KT) & V3-4_IGLJ1*01 Y93A (Fab, V domains shown, Fab; CH1 (His6/Flag tags, plasmid A) and lambda CL (plasmid E) as for the parent) VH: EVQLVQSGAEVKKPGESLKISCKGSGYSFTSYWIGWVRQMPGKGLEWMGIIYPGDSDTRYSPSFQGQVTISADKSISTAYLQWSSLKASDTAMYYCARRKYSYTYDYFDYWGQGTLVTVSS VL: QTVVTQEPSFSVSPGGTVTLTCGLSSGSVSTSYYPSWYQQTPGQAPRTLIYSTNTRSSGVPDRFSGSILGNKAALTITGAQADDESDYYCVLAMGSGISYVFGTGTKVTVL : does ECL Signal/Noise equal or exceed 40?
a: no

q: Check the entry Fab VH5-51_IGHD5-18*01>3_IGHJ4*01 G100K/G104T (H:KT) & V3-4_IGLJ1*01 L92A (Fab, V domains shown, Fab; CH1 (His6/Flag tags, plasmid A) and lambda CL (plasmid E) as for the parent) VH: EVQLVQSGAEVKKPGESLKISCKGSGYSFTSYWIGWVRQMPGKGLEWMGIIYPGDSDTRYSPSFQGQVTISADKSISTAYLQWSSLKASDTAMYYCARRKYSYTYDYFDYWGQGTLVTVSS VL: QTVVTQEPSFSVSPGGTVTLTCGLSSGSVSTSYYPSWYQQTPGQAPRTLIYSTNTRSSGVPDRFSGSILGNKAALTITGAQADDESDYYCVAYMGSGISYVFGTGTKVTVL : does ECL Signal/Noise equal or exceed 40?
a: no

q: Check the entry Fab VH5-51_IGHD5-18*01>3_IGHJ4*01 G100K/G104T (H:KT) & V3-4_IGLJ1*01 (Fab, V domains shown, Tested as purified Fab made in E. coli; also called H:KT & L:wt; KT double mutant) VH: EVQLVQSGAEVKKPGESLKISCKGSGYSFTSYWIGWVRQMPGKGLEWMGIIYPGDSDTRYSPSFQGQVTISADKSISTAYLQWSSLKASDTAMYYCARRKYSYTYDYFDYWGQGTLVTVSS VL: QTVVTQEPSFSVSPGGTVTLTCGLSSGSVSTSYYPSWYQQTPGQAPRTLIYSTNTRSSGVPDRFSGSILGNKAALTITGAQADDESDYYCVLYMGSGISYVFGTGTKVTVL : does ECL Signal/Noise equal or exceed 40?
a: yes

q: Check the entry Fab VH5-51_IGHD5-18*01>3_IGHJ4*01 G100K/G104T (H:KT) & V3-4_IGLJ1*01 S96A (Fab, V domains shown, Fab; CH1 (His6/Flag tags, plasmid A) and lambda CL (plasmid E) as for the parent) VH: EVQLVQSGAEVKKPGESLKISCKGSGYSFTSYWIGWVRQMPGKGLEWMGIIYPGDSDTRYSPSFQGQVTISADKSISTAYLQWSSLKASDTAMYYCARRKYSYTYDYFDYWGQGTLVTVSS VL: QTVVTQEPSFSVSPGGTVTLTCGLSSGSVSTSYYPSWYQQTPGQAPRTLIYSTNTRSSGVPDRFSGSILGNKAALTITGAQADDESDYYCVLYMGAGISYVFGTGTKVTVL : does ECL Signal/Noise equal or exceed 40?
a: yes
